target: T1, protocadherin-15 EC1+2, wild type, His-tagged (mouse, UniProt Q99PJ1 27-259); assay: thermal scanning (thermal stability shift assay with SYPRO orange); pcdh15 fixed at 0.1 mg/mL (~4 μM), cdh23 0.1 to 0.5 mg/mL (~4 to 20 μM; cdh23:pcdh15 1:1 to 5:1); SEC buffer (20 mM Tris-HCl pH 7.5, 150 mM KCl, 50 mM NaCl, 2 mM CaCl2); 10 to 95°C in 0.2°C steps, 5 s equilibration; read-out: shift of the Tm of pcdh15 (ΔTm); settings: both partners purified
T1 construct: Protocadherin-15 (PCDH15), mouse, N-terminal fragment EC1+2; pET21a, NdeI/XhoI; predicted molecular weight 27.5 kDa; Held on the Ni-NTA chip by its His tag in SPR; also called pcdh15; pcdh15(WT); not shown: His6, C-terminal, kept
Recorded ΔTm of pcdh15 at cdh23:pcdh15 1:1 by entry
Test readout: ΔTm of pcdh15 at cdh23:pcdh15 1:1 (°C)

Protein	Result unit	Numeric readout
cadherin-23 EC1+2 T15E, His-tagged (domain or fragment, mouse, Cadherin-23 (CDH23), mouse, N-terminal fragment EC1+2; Mutant of m1 made with QuikChange; also called cdh23(T15E)) QVNRLPFFTNHFFDEYLLISEDTPVGSSVTQLLARDMDNDPLVFGVSGEEASRFFAVEPDTGVVWLRQPLDRETKSEFTVEFSVSDHQGVITRKVNIQVGDVNDNAPTFHNQPYSVRIPENTPVGTPIFIVNATDPDLGAGGSVLYSFQPPSPFFAIDSARGIVTVIQELDYEVTQAYQLTVNATDQDKTRPLSTLANLAIIITD	°C	2.3
cadherin-23 EC1+2 S76V, His-tagged (domain or fragment, mouse, Cadherin-23 (CDH23), mouse, N-terminal fragment EC1+2; Mutant of m1 made with QuikChange; also called cdh23(S76V)) QVNRLPFFTNHFFDTYLLISEDTPVGSSVTQLLARDMDNDPLVFGVSGEEASRFFAVEPDTGVVWLRQPLDRETKVEFTVEFSVSDHQGVITRKVNIQVGDVNDNAPTFHNQPYSVRIPENTPVGTPIFIVNATDPDLGAGGSVLYSFQPPSPFFAIDSARGIVTVIQELDYEVTQAYQLTVNATDQDKTRPLSTLANLAIIITD	°C	1.7
cadherin-23 EC1+2 F7E, His-tagged (domain or fragment, mouse, Cadherin-23 (CDH23), mouse, N-terminal fragment EC1+2; Mutant of m1 made with QuikChange; also called cdh23(F7E)) QVNRLPEFTNHFFDTYLLISEDTPVGSSVTQLLARDMDNDPLVFGVSGEEASRFFAVEPDTGVVWLRQPLDRETKSEFTVEFSVSDHQGVITRKVNIQVGDVNDNAPTFHNQPYSVRIPENTPVGTPIFIVNATDPDLGAGGSVLYSFQPPSPFFAIDSARGIVTVIQELDYEVTQAYQLTVNATDQDKTRPLSTLANLAIIITD	°C	1.7
cadherin-23 EC1+2, wild type, His-tagged (domain or fragment, mouse, Cadherin-23 (CDH23), mouse, N-terminal fragment EC1+2; pET21a, NdeI/XhoI; predicted molecular weight 23.8 kDa; also called cdh23; cdh23(WT)) QVNRLPFFTNHFFDTYLLISEDTPVGSSVTQLLARDMDNDPLVFGVSGEEASRFFAVEPDTGVVWLRQPLDRETKSEFTVEFSVSDHQGVITRKVNIQVGDVNDNAPTFHNQPYSVRIPENTPVGTPIFIVNATDPDLGAGGSVLYSFQPPSPFFAIDSARGIVTVIQELDYEVTQAYQLTVNATDQDKTRPLSTLANLAIIITD	°C	1.8
